B1: Arabidopsis thaliana AtSLY1 (yeast bait fusion) [Arabidopsis thaliana] / A. thaliana GAI (yeast prey fusion) [Arabidopsis thaliana] (parent complex)
chain 1: MKRSTTDSDLAGDAHNETNKKMKSTEEEEIGFSNLDENLVYEVLKHVDAKTLAMSSCVSKIWHKTAQDERLWELICTRHWTNIGCGQNQLRSVVLALGGFRRLHSLYLWPLSKPNPRARFGKDELKLTLSLLSIRYYEKMSFTKRPLPESK
chain 2: MKRDHHHHHHQDKKTMMMNEEDDGNGMDELLAVLGYKVRSSEMADVAQKLEQLEVMMSNVQEDDLSQLATETVHYNPAELYTWLDSMLTDLNPPSSNAEYDLKAIPGDAILNQFAIDSASSSNQGGGGDTYTTNKRLKCSNGVVETTTATAESTRHVVLVDSQENGVRLVHALLACAEAVQKENLTVAEALVKQIGFLAVSQIGAMRKVATYFAEALARRIYRLSPSQSPIDHSLSDTLQMHFYETCPYLKFAHFTANQAILEAFQGKKRVHVIDFSMSQGLQWPALMQALALRPGGPPVFRLTGIGPPAPDNFDYLHEVGCKLAHLAEAIHVEFEYRGFVANTLADLDASMLELRPSEIESVAVNSVFELHKLLGRPGAIDKVLGVVNQIKPEIFTVVEQESNHNSPIFLDRFTESLHYYSTLFDSLEGVPSGQDKVMSEVYLGKQICNVVACDGPDRVERHETLSQWRNRFGSAGFAAAHIGSNAFKQASMLLALFNGGEGYRVEESDGCLMLGWHTRPLIATSAWKLSTN

Variants of: B1
Experiment Summary: yeast 2-hybrid; parent: 0.35; read off a plot
Measured Parameter: response

# annotated cases, reported response shown
Mutation Spec	Meas Value
chain 1 P114L, chain 1 E138K	~77 β-galactosidase units
chain 1 H104Y	~99 β-galactosidase units
chain 1 T128A	~77 β-galactosidase units
chain 1 P114L	~25 β-galactosidase units
chain 1 T128A, chain 1 E138K	~110 β-galactosidase units

State the recorded response for this entry: chain 1 H104Y, chain 1 E138K
~160 β-galactosidase units

Can you look up the measured response of chain 1 E138K for me?
~17 β-galactosidase units
